target entity: fWL, fluorescently labelled H14 foldamer WL
experiment summary: fluorescence polarisation; direct FP: S100 protein diluted in 50 nM labeled foldamer, 20 mM HEPES pH 7.5, 150 mM NaCl, 1 mM CaCl2, 0.5 mM TCEP, 0.01% Tween20; quadratic fit (ProFit); detection threshold Kd 1 mM
pKd: −log10 of the molar value.
measured parameter: pKd

P = S100A12 (natural protein) MTKLEEHLEGIVNIFHQYSVRKGHFDTLSKGELKQLLTKELANTIKNIKDKAVIDEIFQGLDANQDEQVDFQEFISLVAIALKAAHYHTHKE
Q = S100A8 (natural protein) MLTELEKALNSIIDVYHKYSLIKGNFHAVYRDDLKKLLETECPQYIRKKGADVWFKELDINTDGAVNFQEFLILVIKMGVAAHKKSHEESHKE
## Input Problem: Given the entries P and Q , determine which has the lower reported pKd. Please identify the chosen entry by its label.
## Output P
